Each entry below carries its recorded IC50.
Experimental System: Human HDAC1 (Homo sapiens, UniProt Q13547)
Construct: full length with C-terminal His-tag and C-terminal FLAG-tag; His (C); FLAG (C); host or cells: baculovirus expression system
Sequence (Q13547 whole entry): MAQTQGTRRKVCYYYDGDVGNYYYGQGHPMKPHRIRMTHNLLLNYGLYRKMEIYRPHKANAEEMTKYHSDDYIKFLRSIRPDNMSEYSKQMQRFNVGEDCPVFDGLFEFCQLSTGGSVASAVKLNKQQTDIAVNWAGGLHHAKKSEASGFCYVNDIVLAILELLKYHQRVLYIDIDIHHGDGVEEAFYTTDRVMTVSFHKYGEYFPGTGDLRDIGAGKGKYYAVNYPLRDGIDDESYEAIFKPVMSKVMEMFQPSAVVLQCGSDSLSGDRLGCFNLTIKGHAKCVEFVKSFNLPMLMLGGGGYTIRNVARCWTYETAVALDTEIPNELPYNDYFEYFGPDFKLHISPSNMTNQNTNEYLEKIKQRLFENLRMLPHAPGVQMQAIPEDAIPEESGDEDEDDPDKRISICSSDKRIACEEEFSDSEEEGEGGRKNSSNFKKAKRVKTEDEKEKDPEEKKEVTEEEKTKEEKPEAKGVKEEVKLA
Procedure Text: HDAC1 biochemical assay, AMC-labeled peptide substrate
Condition Details: read-out: HDAC Isoform IC50 (nM) 1

Per the record, FC(F)(F)c1cnnc(N(Cc2ccc(-c3noc(C(F)(F)F)n3)s2)c2cc(C(F)(F)F)cnn2)c1 [Example EU] has IC50 of > 10000 nM

Per the record, O=C(c1cnnc(N(Cc2ccc(-c3noc(C(F)(F)F)n3)s2)c2cnccn2)c1)N1CC[S+]([O-])CC1 [Example FU] has IC50 of > 10000 nM

====

Experimental System: Human HDAC5 (Homo sapiens, UniProt Q9UQL6)
Construct: full length with C-terminal His tag, MW=51.1 kDa; His (C); host or cells: baculovirus expression system
Sequence (Q9UQL6 656-1122 limits assumed): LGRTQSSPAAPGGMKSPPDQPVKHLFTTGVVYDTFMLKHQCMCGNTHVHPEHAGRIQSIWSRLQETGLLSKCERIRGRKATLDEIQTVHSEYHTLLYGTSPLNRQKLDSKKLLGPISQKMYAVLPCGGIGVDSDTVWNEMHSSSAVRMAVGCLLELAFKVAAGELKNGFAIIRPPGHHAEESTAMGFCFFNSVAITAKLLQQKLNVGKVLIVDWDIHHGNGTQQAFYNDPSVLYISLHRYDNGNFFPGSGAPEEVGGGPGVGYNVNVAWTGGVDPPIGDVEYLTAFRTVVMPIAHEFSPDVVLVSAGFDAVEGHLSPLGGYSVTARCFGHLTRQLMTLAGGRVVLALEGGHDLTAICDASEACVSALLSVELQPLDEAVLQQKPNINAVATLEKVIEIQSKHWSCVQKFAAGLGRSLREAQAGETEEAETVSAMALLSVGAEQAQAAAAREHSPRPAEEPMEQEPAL
Procedure Text: HDAC5 biochemical assay, class IIa-specific substrate
Condition Details: read-out: HDAC Isoform IC50 (nM) 5
Each entry below carries its recorded IC50.

Some compounds with known IC50 results, for comparison:
Cc1cnc(N(Cc2ccc(-c3noc(C(F)(F)F)n3)s2)c2cc(C(F)(F)F)cnn2)cn1 [Example EO]; ≤ 10000 nM
FC(F)(F)c1cnnc(N(Cc2ccc(-c3noc(C(F)(F)F)n3)s2)c2cnccn2)c1 [Example EF]; ≤ 10000 nM
FC(F)(F)c1nc(-c2ccc(CN(c3cnccn3)c3cccnn3)s2)no1 [Example DD]; ≤ 10000 nM
COC1(C(F)(F)F)CN(C(=O)c2cnnc(N(Cc3ccc(-c4noc(C(F)(F)F)n4)s3)c3cnccn3)c2)C1 [Example GL]; ≤ 1000 nM
FC(F)(F)c1nc(-c2ccc(CN(c3cnccn3)c3cc(N4CCOCC4)ncn3)s2)no1 [Example CL]; ≤ 10000 nM

Per the record, COc1ncncc1N(Cc1ccc(-c2noc(C(F)(F)F)n2)s1)c1cnccn1 [Example CY] has IC50 of ≤ 500 nM

Per the record, COc1ncc(N(Cc2ccc(-c3noc(C(F)(F)F)n3)s2)c2cnccn2)cn1 [Example CT] has IC50 of ≤ 500 nM

Per the record, FC(F)(F)c1nc(-c2ccc(CN(c3cnccn3)c3cnc(N4CCOCC4)cn3)s2)no1 [Example BM] has IC50 of ≤ 1000 nM

====

Experimental System: Complex of human HDAC3 and human NCOR2 (Homo sapiens, UniProt O15379)
Construct: full length with C-terminal His tag, MW=49.7 kDa; His (C); host or cells: baculovirus expression system (co-expressed)
Sequence (O15379 whole entry): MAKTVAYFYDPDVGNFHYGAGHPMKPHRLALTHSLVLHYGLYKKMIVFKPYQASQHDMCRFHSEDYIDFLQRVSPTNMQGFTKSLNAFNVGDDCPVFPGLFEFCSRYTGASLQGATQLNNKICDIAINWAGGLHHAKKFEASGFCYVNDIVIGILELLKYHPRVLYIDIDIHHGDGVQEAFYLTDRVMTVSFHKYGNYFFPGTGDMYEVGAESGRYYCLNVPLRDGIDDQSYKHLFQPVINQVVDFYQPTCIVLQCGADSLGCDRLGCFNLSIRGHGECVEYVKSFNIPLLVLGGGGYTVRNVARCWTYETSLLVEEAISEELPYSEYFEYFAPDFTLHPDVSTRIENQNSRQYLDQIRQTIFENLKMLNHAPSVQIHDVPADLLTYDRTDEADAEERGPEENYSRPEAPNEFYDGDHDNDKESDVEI
Sequence (Q9Y618 395-489 partner limits assumed): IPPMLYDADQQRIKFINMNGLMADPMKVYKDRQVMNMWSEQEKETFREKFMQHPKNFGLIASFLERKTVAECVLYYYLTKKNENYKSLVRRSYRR
Procedure Text: HDAC3 biochemical assay, AMC-labeled peptide substrate
Condition Details: read-out: HDAC Isoform IC50 (nM) 3
Measurement Kind: IC50

CN1CCN(C(=O)c2cnnc(N(Cc3ccc(-c4noc(C(F)(F)F)n4)s3)c3cnccn3)c2)CC1 [Example EC]; > 10000 nM
O=C(c1cnnc(N(Cc2ccc(-c3noc(C(F)(F)F)n3)s2)c2cnccn2)c1)N1CCCC1 [Example EA]; ≤ 10000 nM
O=C(c1ccc(N(Cc2ccc(-c3noc(C(F)(F)F)n3)s2)c2cnccn2)nn1)N1C[C@@H]2C[C@H]1CO2 [Example FE]; ≤ 10000 nM
O=C(c1cnnc(N(Cc2ccc(-c3noc(C(F)(F)F)n3)s2)c2cnccn2)c1)N1CC2CCC(C1)O2 [Example GA]; > 10000 nM
FC(F)(F)c1cnc(N(Cc2ccc(-c3noc(C(F)(F)F)n3)s2)c2cnccn2)cn1 [Example BK]; > 10000 nM

Per the record, Cc1cncc(N(Cc2ccc(-c3noc(C(F)(F)F)n3)s2)c2cnccn2)n1 [Example BP] has IC50 of > 10000 nM

Per the record, NC(=O)c1nccnc1N(Cc1ccc(-c2noc(C(F)(F)F)n2)s1)c1cnccn1 [Example GO] has IC50 of > 10000 nM

Per the record, CN(C)C1CN(C(=O)c2cnnc(N(Cc3ccc(-c4noc(C(F)(F)F)n4)s3)c3cnccn3)c2)C1 [Example FX] has IC50 of > 10000 nM

Per the record, NC(=O)c1cnnc(N(Cc2ccc(-c3noc(C(F)(F)F)n3)s2)c2cnccn2)c1 [Example DX] has IC50 of ≤ 10000 nM

Per the record, COc1cnc(N(Cc2ccc(-c3noc(C(F)(F)F)n3)s2)c2cnccn2)cn1 [Example BI] has IC50 of > 10000 nM

Per the record, Fc1ccnc(N(Cc2ccc(-c3noc(C(F)(F)F)n3)s2)c2cnccn2)c1 [Example AG] has IC50 of > 10000 nM

Per the record, O=C(O)c1cnnc(N(Cc2ccc(-c3noc(C(F)(F)F)n3)s2)c2cc(C(F)(F)F)cnn2)c1 [Example ES] has IC50 of > 10000 nM

Per the record, CC(F)(F)c1cnnc(N(Cc2ccc(-c3noc(C(F)(F)F)n3)s2)c2cnccn2)c1 [Example GU] has IC50 of > 10000 nM

Per the record, FC(F)(F)c1cncc(N(Cc2ccc(-c3noc(C(F)(F)F)n3)s2)c2cnccn2)n1 [Example BR] has IC50 of > 10000 nM

Per the record, O=C(O)c1cnnc(N(Cc2sc(-c3noc(C(F)(F)F)n3)cc2F)c2cnccn2)c1 [Example FA] has IC50 of ≤ 10000 nM

Per the record, CNC(=O)c1cnnc(N(Cc2ccc(-c3noc(C(F)(F)F)n3)s2)c2cnccn2)c1 [Example DY] has IC50 of > 10000 nM

Per the record, O=C(c1cnnc(N(Cc2ccc(-c3noc(C(F)(F)F)n3)s2)c2cnccn2)c1)N1CCC1 [Example FS] has IC50 of > 10000 nM

Per the record, COC1CN(C(=O)c2cnnc(N(Cc3ccc(-c4noc(C(F)(F)F)n4)s3)c3cnccn3)c2)C1 [Example DZ] has IC50 of > 10000 nM

Per the record, O=C(c1ccc(N(Cc2ccc(-c3noc(C(F)(F)F)n3)s2)c2cnccn2)nn1)N1CCCCC1 [Example FG] has IC50 of > 10000 nM

Per the record, N#Cc1cnnc(N(Cc2ccc(-c3noc(C(F)(F)F)n3)s2)c2cnccn2)c1 [Example EE] has IC50 of > 10000 nM

Per the record, FC(F)(F)c1nc(-c2ccc(CN(c3cnccn3)c3cnccn3)s2)no1 [Example BA] has IC50 of > 10000 nM

Per the record, CC(C)(O)c1cnnc(N(Cc2ccc(-c3noc(C(F)(F)F)n3)s2)c2cnccn2)c1 [Example GS] has IC50 of > 10000 nM

Per the record, FC(F)(F)c1nc(-c2ccc(CN(c3ccccn3)c3cnccn3)s2)no1 [Example V] has IC50 of > 10000 nM

Per the record, FC(F)(F)c1nc(-c2ccc(CN(c3cnccn3)c3cc(-c4ccccn4)cnn3)s2)no1 [Example GM] has IC50 of > 10000 nM

Per the record, O=C(c1cnnc(N(Cc2ccc(-c3noc(C(F)(F)F)n3)s2)c2cnccn2)c1)N1CC(C(F)F)C1 [Example GK] has IC50 of ≤ 10000 nM

Per the record, O=C(c1ccc(N(Cc2ccc(-c3noc(C(F)(F)F)n3)s2)c2cnccn2)nn1)N1CC[S+]([O-])CC1 [Example FD] has IC50 of ≤ 10000 nM

Per the record, O=C(c1cnnc(N(Cc2ccc(-c3noc(C(F)(F)F)n3)s2)c2cnccn2)c1)N1CC(C(F)(F)F)C1 [Example GJ] has IC50 of ≤ 10000 nM

Per the record, O=C(c1cnnc(N(Cc2ccc(-c3noc(C(F)(F)F)n3)s2)c2cnccn2)c1)N1CC(F)(F)C1 [Example FT] has IC50 of > 10000 nM

Per the record, O=C(c1ccc(N(Cc2ccc(-c3noc(C(F)(F)F)n3)s2)c2cnccn2)nn1)N1CC(O)(C(F)(F)F)C1 [Example FK] has IC50 of ≤ 10000 nM

Per the record, COc1cncc(N(Cc2ccc(-c3noc(C(F)(F)F)n3)s2)c2cnccn2)n1 [Example BQ] has IC50 of > 10000 nM

Per the record, O=C(c1cnnc(N(Cc2ccc(-c3noc(C(F)(F)F)n3)s2)c2cnccn2)c1)N1CC[S+]([O-])CC1 [Example FU] has IC50 of > 10000 nM
